- Test system: Beet Armyworm (BAW) (Spodoptera exigua)
- Assay Overview: Bioassay on beet armyworm (BAW), 128-well diet tray assay
- Format: in vivo
- Experimental Context: 168 h, 50 μg/cm^2 on artificial diet, second instar larvae, 25° C., five to seven days, average of eight wells, read-out: % Mortality BAW 50 μg/cm^2
Measured mortality at 50 µg/cm2 values are reported for all entries that follow.

Cc1ccc(NC(=S)NC2CC2c2ccc(-c3ncn(-c4ccc(OC(F)(F)F)cc4)n3)cc2)c(C)c1 (stereo not drawn): 50 to 100%
FC(F)(F)Oc1ccc(-n2cnc(-c3ccc(C4CC4NC(=S)Nc4c(Cl)cccc4Cl)cc3)n2)cc1 (stereo not drawn): 50 to 100%

Now consider a different molecule.
Quick check: mortality at 50 µg/cm2 of O=C(Nc1c(Cl)cccc1Cl)NC1CC1c1ccc(-c2ncn(-c3ccc(OC(F)(F)F)cc3)n2)cc1 (stereo not drawn) ?
0%

* * *

Measured mortality at 50 µg/cm2 values are reported for all entries that follow.
- System: Corn Earworm (CEW) (Helicoverpa zea)
- Assay Overview: Bioassay on corn earworm (CEW), 128-well diet tray assay
- Type: in vivo
- Experimental Context: 168 h, read-out: % Mortality CEW 50 μg/cm^2

Guide cases for mortality at 50 µg/cm2, answers given:
O=C(NC1CC1c1ccc(-c2ncn(-c3ccc(OC(F)(F)F)cc3)n2)cc1)Oc1ccccc1 (stereo not drawn): 50 to 100%
CC(OC(=O)NC1CC1c1ccc(-c2ncn(-c3ccc(OC(F)(F)F)cc3)n2)cc1)c1ccccn1 (stereo not drawn): 50 to 100%
O=C(NC1CC1c1ccc(-c2ncn(-c3ccc(OC(F)(F)F)cc3)n2)cc1)Oc1ccccc1C1CCCC1 (stereo not drawn): 50 to 100%

Quick check: mortality at 50 µg/cm2 of O=C(NC1CC1c1ccc(-c2ncn(-c3ccc(OC(F)(F)F)cc3)n2)cc1)Oc1c(Cl)cccc1Cl (stereo not drawn) ?
0%

Quick check: mortality at 50 µg/cm2 of O=C(NC1CC1c1ccc(-c2ncn(-c3ccc(OC(F)(F)F)cc3)n2)cc1)Oc1ccccc1C(F)(F)F (stereo not drawn) ?
0%

Quick check: mortality at 50 µg/cm2 of COc1ccc(OC(=O)NC2CC2c2ccc(-c3ncn(-c4ccc(OC(F)(F)F)cc4)n3)cc2)cc1 (stereo not drawn) ?
50 to 100%

Quick check: mortality at 50 µg/cm2 of Cc1cc(F)ccc1OC(=O)NC1CC1c1ccc(-c2ncn(-c3ccc(OC(F)(F)F)cc3)n2)cc1 (stereo not drawn) ?
50 to 100%

Quick check: mortality at 50 µg/cm2 of CC(C)(C)c1ccccc1OC(=O)NC1CC1c1ccc(-c2ncn(-c3ccc(OC(F)(F)F)cc3)n2)cc1 (stereo not drawn) ?
0%

Quick check: mortality at 50 µg/cm2 of Cc1cc(C)c(OC(=O)NC2CC2c2ccc(-c3ncn(-c4ccc(OC(F)(F)F)cc4)n3)cc2)c(C)c1 (stereo not drawn) ?
0 to 50%

Quick check: mortality at 50 µg/cm2 of COC(=O)NC1CC1c1ccc(-c2ncn(-c3ccc(OC(F)(F)F)cc3)n2)cc1 (stereo not drawn) ?
0 to 50%

Quick check: mortality at 50 µg/cm2 of CC(C)c1ccccc1OC(=O)NC1CC1c1ccc(-c2ncn(-c3ccc(OC(F)(F)F)cc3)n2)cc1 (stereo not drawn) ?
50 to 100%

Quick check: mortality at 50 µg/cm2 of CC(OC(=O)NC1CC1c1ccc(-c2ncn(-c3ccc(OC(F)(F)F)cc3)n2)cc1)c1ccccc1 (stereo not drawn) ?
50 to 100%
